# Test: PET hydrolysis product formed (TPA+MHET+BHET, UV-Vis) per mg enzyme (mmol/mg enzyme); higher = more PET depolymerisation activity; extreme values may be limits of the assay
# Condition label: PET substrate: cryPow; 60 °C; pH 5.5; 24 h
Property: PET hydrolysis product formed

Briefly, PET hydrolysis product formed measured for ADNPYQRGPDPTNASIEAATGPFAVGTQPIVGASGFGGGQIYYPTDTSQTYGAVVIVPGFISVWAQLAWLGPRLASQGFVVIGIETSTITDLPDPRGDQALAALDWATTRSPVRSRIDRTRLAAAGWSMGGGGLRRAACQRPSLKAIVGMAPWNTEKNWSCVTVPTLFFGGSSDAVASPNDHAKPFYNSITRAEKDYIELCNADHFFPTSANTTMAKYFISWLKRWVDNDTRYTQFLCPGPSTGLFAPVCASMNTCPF [CaPETaseM9] : 0.0317

Hello, the source for this data is the supplement of paper PMC11196671, in case you need it.
